Taken from ChEMBL document CHEMBL3351811.

target: Solute carrier family 2, facilitated glucose transporter member 4 (Rattus norvegicus); test: Induction of rat GLUT4 translocation in rat L6 cells expressing myc-tagged GLUT4 incubated for 3 hrs by antibody-coupled colourimetric assay; format: cell-based
experimental.readout: Activity

molecule="O=c1cc(CO)oc(C(c2ccccc2)c2ccc(O)cc2)c1O (configuration not stated)" experimental_readout=Activity result="Dose-dependent effect"
molecule="COc1ccc(SC(c2ccccc2)c2oc(CO)cc(=O)c2O)cc1 (configuration not stated)" experimental_readout=Activity result="Dose-dependent effect"
molecule="O=c1cc(CO)oc(C(Sc2ccccc2)c2ccccc2)c1O (configuration not stated)" experimental_readout=Activity result="Dose-dependent effect"
molecule="COc1ccc(OC)c(C(c2oc(CO)cc(=O)c2O)c2c[nH]c3ccccc23)c1 (configuration not stated)" experimental_readout=Activity result="Dose-dependent effect"
molecule="Cc1ccc(C(c2ccccc2)c2oc(CO)cc(=O)c2O)s1 (configuration not stated)" experimental_readout=Activity result="Dose-dependent effect"
molecule="COc1ccc2[nH]cc(C(c3ccccc3)c3oc(CO)cc(=O)c3O)c2c1 (configuration not stated)" experimental_readout=Activity result="Dose-dependent effect"
molecule="COc1cccc(C(c2oc(CO)cc(=O)c2O)c2c[nH]c3ccccc23)c1OC (configuration not stated)" experimental_readout=Activity result="Dose-dependent effect"

====

molecular target: Solute carrier family 2, facilitated glucose transporter member 4 (Rattus norvegicus) (UniProt P19357); assay: Stimulation of rat GLUT4-mediated glucose uptake in rat L6 cells expressing myc-tagged GLUT4 at 10 uM incubated for 16 hrs by scintillation counting based 2-[3H]DG uptake assay; format: cell-based
Readings of fold change (FC) for the listed molecules
experimental.readout: fold change (FC)

molecule="COc1ccc(OC)c(C(c2oc(CO)cc(=O)c2O)c2c[nH]c3ccccc23)c1 (configuration not stated)" experimental_readout="fold change (FC)" measured_number=1.21
molecule="COc1ccc2[nH]cc(C(c3ccccc3)c3oc(CO)cc(=O)c3O)c2c1 (configuration not stated)" experimental_readout="fold change (FC)" measured_number=1.25
molecule="COc1ccc(SC(c2ccccc2)c2oc(CO)cc(=O)c2O)cc1 (configuration not stated)" experimental_readout="fold change (FC)" measured_number=1.38
molecule="O=c1cc(CO)oc(C(Sc2ccccc2)c2ccccc2)c1O (configuration not stated)" experimental_readout="fold change (FC)" measured_number=1.33
molecule="COc1cccc(C(c2oc(CO)cc(=O)c2O)c2c[nH]c3ccccc23)c1OC (configuration not stated)" experimental_readout="fold change (FC)" measured_number=1.25
molecule="O=c1cc(CO)oc(C(c2ccccc2)c2ccc(O)cc2)c1O (configuration not stated)" experimental_readout="fold change (FC)" measured_number=1.34
molecule="Cc1ccc(C(c2ccccc2)c2oc(CO)cc(=O)c2O)s1 (configuration not stated)" experimental_readout="fold change (FC)" measured_number=1.21

====

Biological target: Solute carrier family 2, facilitated glucose transporter member 4 (Rattus norvegicus) (UniProt P19357)
Sequence (whole entry): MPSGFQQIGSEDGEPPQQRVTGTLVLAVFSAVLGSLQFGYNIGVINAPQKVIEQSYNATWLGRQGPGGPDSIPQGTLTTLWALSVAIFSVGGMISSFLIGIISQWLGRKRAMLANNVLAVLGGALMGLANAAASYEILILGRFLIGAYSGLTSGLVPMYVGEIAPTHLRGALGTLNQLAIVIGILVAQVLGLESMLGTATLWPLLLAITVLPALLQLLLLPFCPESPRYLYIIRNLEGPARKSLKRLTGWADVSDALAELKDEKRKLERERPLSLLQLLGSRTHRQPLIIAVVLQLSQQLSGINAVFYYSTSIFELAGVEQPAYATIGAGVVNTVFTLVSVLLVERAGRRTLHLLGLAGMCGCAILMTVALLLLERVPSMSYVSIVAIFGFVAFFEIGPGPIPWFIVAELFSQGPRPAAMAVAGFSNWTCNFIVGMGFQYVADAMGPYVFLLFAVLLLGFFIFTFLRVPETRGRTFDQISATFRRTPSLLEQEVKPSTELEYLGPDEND
Assay: Stimulation of rat GLUT4-mediated glucose uptake in rat L6 cells expressing myc-tagged GLUT4 at 10 uM incubated for 16 hrs in presence of 1 uM PI3K inhibitor wortmannin by scintillation counting based 2-[3H]DG uptake assay
Format: cell-based
Calls of active or inactive are those of the source. No cut-off for these calls is given here.
experimental.readout: Activity

compound="COc1ccc(OC)c(C(c2oc(CO)cc(=O)c2O)c2c[nH]c3ccccc23)c1 (configuration not stated)" result=inactive
compound="COc1ccc(SC(c2ccccc2)c2oc(CO)cc(=O)c2O)cc1 (configuration not stated)" result=inactive
compound="COc1cccc(C(c2oc(CO)cc(=O)c2O)c2c[nH]c3ccccc23)c1OC (configuration not stated)" result=inactive
compound="Cc1ccc(C(c2ccccc2)c2oc(CO)cc(=O)c2O)s1 (configuration not stated)" result=inactive
compound="O=c1cc(CO)oc(C(c2ccccc2)c2ccc(O)cc2)c1O (configuration not stated)" result=inactive
compound="O=c1cc(CO)oc(C(Sc2ccccc2)c2ccccc2)c1O (configuration not stated)" result=inactive
compound="COc1ccc2[nH]cc(C(c3ccccc3)c3oc(CO)cc(=O)c3O)c2c1 (configuration not stated)" result=inactive
